B1: SPATS1 (parent)
chain: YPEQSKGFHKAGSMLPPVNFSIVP

variants of: B1; assay: protein stability index of a GFP-peptide fusion (GPS, HEK-293T) (PSI 1-6); higher = more stable; details: c terminus: a fixed tail appended;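 note: lentivirally expressed fusions sorted by FACS into six bins by GFP to DsRed ratio, PSI derived from sequencing read proportions per bin multiplied by bin number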
Hi, to clarify the labels: class 1 covers protein stability index from 2 upward, class 0 covers anything below 2.

- Mutation Name: "A11S"
  Discrete Label: "class 0"

Now consider a different variant.
Ask: Check this variant for protein stability index at or above 2: `F20R`
Result: class 1
